- Tested on: DLD1 NRF2-WT
- Test description: drug sensitivity score (DSS) cytotoxicity (DSS score); higher = more toxic; extreme values may be limits of the assay
- Condition summary: 72 h; CellTox Green cytotoxicity
Property: drug sensitivity score
Please state the value as a number alone, without comment.

Reference set, count: 6
# Given smiles, drug sensitivity score
records = [
    ("O=C(CCCCCCNC(=O)c1cnc(N(c2ccccc2)c2ccccc2)nc1)NO", 0),
    ("C#Cc1cccc(Nc2ncnc3cc(OCCOC)c(OCCOC)cc23)c1", 0),
    ("C=CC(=O)Nc1cc2c(Nc3ccc(F)c(Cl)c3)ncnc2cc1OCCCN1CCOCC1", 7.1),
    ("CCS(=O)(=O)c1cccc(-c2cc(C(=O)NC3CCN(C)CC3)c(C)c3[nH]c4ncc(C)cc4c23)c1", 2.2),
    ("CCn1c(-c2nonc2N)nc2cnc(Oc3cccc(NC(=O)c4ccc(OCCN5CCOCC5)cc4)c3)cc21", 1.2),
    ("CCCS(=O)(=O)Nc1ccc(F)c(C(=O)c2c[nH]c3ncc(-c4ccc(Cl)cc4)cc23)c1F", 0),
]

Proceeding to the next compound to report its drug sensitivity score.
Lab note: CC[C@]1(O)C[C@H]2CN(CCc3c([nH]c4ccccc34)[C@@](C(=O)OC)(c3cc4c(cc3OC)N(C)[C@H]3[C@@](O)(C(=O)OC)[C@H](OC(C)=O)[C@]5(CC)C=CCN6CC[C@]43[C@@H]65)C2)C1 gave drug sensitivity score of 4.1
